# TEST TARGET: Cav2.3 (Homo sapiens, UniProt Q15878)
# Sequence (Q15878 1-747 limits assumed): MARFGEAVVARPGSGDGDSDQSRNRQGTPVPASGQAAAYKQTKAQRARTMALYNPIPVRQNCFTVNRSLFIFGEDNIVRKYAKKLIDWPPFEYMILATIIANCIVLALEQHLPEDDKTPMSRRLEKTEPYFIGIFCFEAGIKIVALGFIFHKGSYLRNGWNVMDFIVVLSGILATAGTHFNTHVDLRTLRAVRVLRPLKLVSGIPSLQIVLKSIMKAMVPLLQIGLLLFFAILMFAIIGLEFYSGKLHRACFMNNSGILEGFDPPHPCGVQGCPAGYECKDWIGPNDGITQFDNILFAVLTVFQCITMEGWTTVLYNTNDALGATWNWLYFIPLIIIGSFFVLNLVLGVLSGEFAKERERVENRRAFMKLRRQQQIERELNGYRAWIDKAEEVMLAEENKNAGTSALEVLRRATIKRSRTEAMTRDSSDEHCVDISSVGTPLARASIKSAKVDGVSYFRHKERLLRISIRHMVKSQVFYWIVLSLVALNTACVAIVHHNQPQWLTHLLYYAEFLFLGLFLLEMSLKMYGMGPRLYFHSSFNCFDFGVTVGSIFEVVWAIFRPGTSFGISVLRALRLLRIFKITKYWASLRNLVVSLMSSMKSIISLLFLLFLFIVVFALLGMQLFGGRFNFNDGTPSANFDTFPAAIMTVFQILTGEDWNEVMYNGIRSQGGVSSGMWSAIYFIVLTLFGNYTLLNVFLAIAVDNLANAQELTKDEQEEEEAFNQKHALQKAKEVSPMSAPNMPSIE
# Sequence (Q15878 1126-1966 limits assumed): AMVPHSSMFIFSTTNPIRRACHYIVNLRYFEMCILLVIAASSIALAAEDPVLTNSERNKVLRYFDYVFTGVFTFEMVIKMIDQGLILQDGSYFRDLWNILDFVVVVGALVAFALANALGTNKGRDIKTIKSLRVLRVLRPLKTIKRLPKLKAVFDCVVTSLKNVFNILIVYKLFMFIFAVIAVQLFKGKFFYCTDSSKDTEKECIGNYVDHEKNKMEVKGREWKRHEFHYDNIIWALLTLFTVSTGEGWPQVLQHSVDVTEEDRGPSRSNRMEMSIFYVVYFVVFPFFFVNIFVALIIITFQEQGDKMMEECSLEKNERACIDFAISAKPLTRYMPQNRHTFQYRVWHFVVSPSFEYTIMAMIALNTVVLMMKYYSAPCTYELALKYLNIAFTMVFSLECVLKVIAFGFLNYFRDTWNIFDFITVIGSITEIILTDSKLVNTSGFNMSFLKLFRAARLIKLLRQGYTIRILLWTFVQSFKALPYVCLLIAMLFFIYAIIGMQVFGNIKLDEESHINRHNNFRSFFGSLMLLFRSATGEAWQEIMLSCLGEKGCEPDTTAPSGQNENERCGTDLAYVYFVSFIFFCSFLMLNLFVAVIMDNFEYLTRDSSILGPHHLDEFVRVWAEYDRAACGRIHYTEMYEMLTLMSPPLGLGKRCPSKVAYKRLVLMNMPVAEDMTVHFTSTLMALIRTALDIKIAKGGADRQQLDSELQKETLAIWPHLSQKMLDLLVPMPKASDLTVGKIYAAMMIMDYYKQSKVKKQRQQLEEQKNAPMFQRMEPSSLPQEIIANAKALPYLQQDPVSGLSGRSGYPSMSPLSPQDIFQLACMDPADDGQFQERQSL
# ASSAY NOTES: Whole-cell patch clamp assay (QPatch 16X)
# Assay type: cell-based
# CONDITION CONTEXT: whole-cell voltage clamp, HEK-293 T-Rex/Kir2.1/Cav2.3e-β4-α2δ1 cells, room temperature; read-out: Cav2.3 (pIC50) (converted)
EXPERIMENTAL ENDPOINT: IC50 (nM)

In [3]: df
Out[3]:
                                   compound  endpoint_value
0  CC(C)C(=O)N1CCc2ccc(S(=O)(=O)N3CC4(CCC4)CC3C)cc2C1 (centres unmarked) [Example 30]            1700
1  CC1CC2(CCC2)CN1S(=O)(=O)c1cccs1 (single isomer, unassigned)            3720
2  CC(C)C(=O)N1CCc2ccc(S(=O)(=O)N3CC4(CCC4)CC3C)cc2C1 (single isomer, unassigned) [Example 32]            2340
3  CCC1CC2(CCC2)CN1S(=O)(=O)c1ccc2nc(C)sc2c1 (centres unmarked)            2820
4  CC1CC2(CCC2)CN1S(=O)(=O)c1ccc2c(c1)CN(C(=O)Cc1ccccc1)CC2 (centres unmarked)             933
5  CC1CC2(CCC2)CN1S(=O)(=O)c1ccc2c(c1)CN(C(=O)c1ccccc1)CC2 (single isomer, unassigned) [Example 27]             832
6  CC1CC2(CCC2)CN1S(=O)(=O)c1ccc2c(c1)CN(C(=O)c1ccccc1)CC2 (single isomer, unassigned) [Example 28]            1700
7  CC(C)C(=O)N1CCc2ccc(S(=O)(=O)N3CC4(CCCC4)CC3C)cc2C1 (centres unmarked)            1170
8  CCOC(=O)N1CCc2ccc(S(=O)(=O)N3CC4(CCC4)CC3C)cc2C1 (single isomer, unassigned) [Example 23]             832

(A) CCC1CC2(CCC2)CN1S(=O)(=O)c1ccc2c(c1)CN(C(=O)C(F)(F)F)CC2 (centres unmarked)
(B) CCC1CC2(CCC2)CN1S(=O)(=O)c1cccs1 (single isomer, unassigned)
(C) CCOC(=O)N1CCc2ccc(S(=O)(=O)N3CC4(CCC4)CC3C)cc2C1 (centres unmarked) [Example 22]
(D) CC1CC2(CCC2)CN1S(=O)(=O)c1ccc2c(c1)CN(C(=O)c1ccccc1)CC2 (centres unmarked) [Example 26]
(E) CC(C)C(=O)N1CCc2ccc(S(=O)(=O)N3CC4(CCC4)CC3C)cc2C1 (single isomer, unassigned) [Example 31]
Put the compounds in ascending order of IC50. Could you list the labels in the order requested?
D, C, B, A, E
